Assay: qHTS assay to identify small molecule agonists of the TGF-beta/Smad signaling pathway - cell viability counter screen (AID 1346829); further: nearly all actives have a fitted effect of over 45% in size
Settings: SBE-bla HEK293T viability, CellTiter-Glo luminescence, 5 h; series mostly up to 76.8 µM
Inconclusive results are not listed. Active and inactive are the calls of the source. The call rests on the fitted dose curve; in most records, active means well fitted cell-killing curve with a large enough effect in the repeat runs; inconclusive means weak or mixed curves, or effect the other way; inactive means flat fitted curve, though single readings scatter.
Respond with a class label; see active, inactive

Below are worked cases with known answers.
Answer briefly: the call reported for `Nc1nc(N)nc(Cl)n1` in this assay.
inactive

// same read-out, input: `CCN(CC)C(=O)N[C@@H]1C=C2c3cccc4[nH]cc(c34)C[C@@H]2N(C)C1`
inactive

// same read-out, input: `ClCBr`
inactive

// same read-out, input: `Clc1ccc(C2(Cn3cncn3)OCCO2)c(Cl)c1`
inactive

// same read-out, input: `O=c1[nH]c(Cl)c(Cl)cc1Cl`
inactive

// same read-out, input: `CSC1=N[C@@](C)(c2ccccc2)C(=O)N1Nc1ccccc1`
inactive

// same read-out, input: `C[C@@H]1CC2=CC(=O)CC[C@@H]2[C@H]2CC[C@@]3(C)[C@@H](CC[C@]3(C)O)[C@@H]21`
inactive

// same read-out, input: `Nc1nc(N)c(N)c(N)n1`
inactive

Next:
Answer briefly: the call reported for CC(Cc1ccccc1)N(C)Cc1ccco1 (stereo not given) in this assay.
inactive

// same read-out, input: `CCCCc1ccccc1`
inactive

// same read-out, input: `[O-][Cl+3]([O-])([O-])O`
inactive

// same read-out, input: `[F][Sn]([c]1ccccc1)([c]1ccccc1)[c]1ccccc1`
active

// same read-out, input: `CC1=C2C[C@H]3[C@@H](CC=C4C[C@@H](O)CC[C@@]43C)[C@@H]2CC[C@]12O[C@@H]1C[C@H](C)CN[C@H]1[C@H]2C`
inactive

// same read-out, input: `CCC1(CC)C(=O)N=C(O)NC1=O`
inactive

* * *

Test: qHTS assay to identify small molecule antagonists of the estrogen receptor beta (ER-beta) signaling pathway - cell viability counter screen (AID 1259382);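 further: HEK293T cells carrying ER-beta-UAS-bla reporter stimulated with estradiol; nearly all actives have a fitted effect of over 55% in size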
Conditions: ER-beta-UAS-bla HEK293T viability, CellTiter-Glo luminescence, 16 h; series mostly up to 92.4 µM
Records with an inconclusive call do not appear. Calls of active or inactive are those of the source. Calls come from the whole dose curve; as a rule, active = well fitted cell-killing curve with a large enough effect in the repeat runs; inconclusive = weak or mixed curves; inactive = flat fitted curve, though single readings scatter.
Recorded endpoint: outcome

Sample CC(Cc1ccccc1)N(C)Cc1ccco1 (stereo not drawn) — what was its outcome?
inactive

// same read-out, input: `COc1c2c(cc3c1OCO3)CCN(C)C2`
inactive

// same read-out, input: `CCN(CC)CCc1c[nH]c2ccccc12`
inactive

* * *

Target: Nuclear receptor subfamily 1 group I member 3 (Homo sapiens) (UniProt Q14994)
Sequence (Q14994 whole entry, looked up): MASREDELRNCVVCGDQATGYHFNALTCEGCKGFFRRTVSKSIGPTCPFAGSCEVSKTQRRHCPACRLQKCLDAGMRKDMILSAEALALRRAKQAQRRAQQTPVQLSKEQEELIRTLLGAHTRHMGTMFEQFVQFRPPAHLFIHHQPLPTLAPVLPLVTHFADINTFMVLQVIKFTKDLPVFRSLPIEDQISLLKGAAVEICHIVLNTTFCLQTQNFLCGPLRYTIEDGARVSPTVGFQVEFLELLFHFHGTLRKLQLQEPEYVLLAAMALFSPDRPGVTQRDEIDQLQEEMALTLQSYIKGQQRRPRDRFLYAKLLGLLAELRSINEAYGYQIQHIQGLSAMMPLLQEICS
Test: qHTS assay to identify small molecule agonists of the constitutive androstane receptor (CAR) signaling pathway (AID 1224839); further: nearly all actives have a fitted effect of over 15% in size;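 on activation: HepG2 cells stably carrying human CAR and a CYP2B6 luciferase reporter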
Settings: HepG2 hCAR CYP2B6-luciferase, agonist mode, 24 h; series mostly up to 92.4 µM
Results filed as inconclusive are left out. Activity calls are given as the source filed them. Calls come from the whole dose curve; as a rule, active = well fitted activation curve with a large enough effect in the repeat runs; inconclusive = weak or mixed curves; inactive = no such curve, though single readings can be large or run the other way.
Respond with a class label; see 1 (yes) = active, 0 (no) = inactive

Below are worked cases with known answers.
Answer briefly: the call reported for `CCC1(CC)C(=O)N=C(O)NC1=O` in this assay.
0 (no)

// same read-out, input: `CC[C@H](C)[C@H]1O[C@]2(C=C[C@@H]1C)C[C@@H]1C[C@@H](C/C=C(\C)[C@@H](O[C@H]3C[C@H](OC)[C@@H](O[C@H]4C[C@H](OC)[C@@H](NC)[C@H](C)O4)[C@H](C)O3)[C@@H](C)/C=C/C=C3\CO[C@@H]4[C@H](O)C(C)=C[C@@H](C(=O)O1)[C@]34O)O2`
0 (no)

// same read-out, input: `O=[N+]([O-])c1ccc(Cl)c(Cl)c1Cl`
0 (no)

// same read-out, input: CCC(OC(C)=O)C(CC(C)NC)(c1ccccc1)c1ccccc1 (centres undefined)
0 (no)

// same read-out, input: `Cc1ccc([N+](=O)[O-])[c]2c1[O][Hg]2`
0 (no)

Next:
Answer briefly: the call reported for `CCCCC/C=C\C/C=C\C/C=C\C/C=C\CCCC(=O)NCC(=O)O` in this assay.
0 (no)

// same read-out, input: `O=C1C(Cl)=C(Cl)C(=O)C(Cl)=C1Cl`
0 (no)

// same read-out, input: `Cc1cccc(Cc2cnc[nH]2)c1C`
0 (no)

// same read-out, input: `CN=C=O`
0 (no)

// same read-out, input: `Cc1ccn2nc(S(=O)(=O)Nc3c(F)cccc3F)nc2n1`
0 (no)

// same read-out, input: `Fc1ccc(C(OCCN2CCN(CCCc3ccccc3)CC2)c2ccc(F)cc2)cc1`
0 (no)

// same read-out, input: `Cc1cc(C2CC2)nc(Nc2ccccc2)n1`
1 (yes)

// same read-out, input: `CN(C)C(=S)SSC(=S)N(C)C`
0 (no)

// same read-out, input: `Brc1cccc(-c2ccccc2)c1`
0 (no)

* * *

Target: Nuclear receptor subfamily 1 group I member 3 (Homo sapiens) (UniProt Q14994)
Test: qHTS assay to identify small molecule agonists of the constitutive androstane receptor (CAR) signaling pathway (AID 1224839); further: nearly all actives have a fitted effect of over 15% in size;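 on activation: HepG2 cells stably carrying human CAR and a CYP2B6 luciferase reporter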
Conditions: HepG2 hCAR CYP2B6-luciferase, agonist mode, 24 h; series mostly up to 92.4 µM
Inconclusive results are not listed. Calls of active or inactive are those of the source. Calls follow the shape of the dose curve; as a rule, active = well fitted activation curve with a large enough effect in the repeat runs; inconclusive = weak or mixed curves; inactive = no such curve, though single readings can be large or run the other way.
Respond with a class label; see active, inactive

Answer briefly: the call reported for `N#CSCc1ccccc1` in this assay.
inactive

// same read-out, input: CCC(C)Br (stereo not given)
inactive

// same read-out, input: COP(=S)(NC(C)C)Oc1ccc(C)cc1[N+](=O)[O-] (stereo not given)
active

// same read-out, input: CN1[C@@H]2CC[C@H]1CC(O)C2 (stereo not given in full)
inactive

// same read-out, input: `COc1nc(C)nc(NC(=O)NS(=O)(=O)c2ccccc2Cl)n1`
inactive

// same read-out, input: `Cc1ccc2cc3c(ccc4ccccc43)c3c2c1CC3`
inactive

// same read-out, input: `CNC(=O)/C=C(\C)OP(=O)(OC)OC`
inactive

// same read-out, input: CCO/N=C(\CC)C1=C(O)CC(c2c(C)cc(C)cc2C)CC1=O (stereo not given)
inactive

Next:
Answer briefly: the call reported for CN1C2CCC(C)(C)C1CC(OC(=O)C(O)(c1cccs1)c1cccs1)C2 (stereo not given) in this assay.
inactive

// same read-out, input: `CO/N=C(\C(=O)OC)c1ccccc1CO/N=C(\C)c1cccc(C(F)(F)F)c1`
active

* * *

Assay: qHTS RealTime-Glo MT Cell Viability Assay in HEK293 cells - 24 hour (AID 1224886); further: nearly all actives have a fitted effect of over 50% in size
Details: RealTime-Glo luminescence; series mostly up to 76.8 µM
Records with an inconclusive call do not appear. Activity calls are given as the source filed them. Calls come from the whole dose curve; as a rule, active = well fitted cell-killing curve with a large enough effect in the repeat runs; inconclusive = weak or mixed curves, or effect the other way; inactive = flat fitted curve, though single readings scatter.
Respond with a class label; see active, inactive

Answer briefly: the call reported for CCC(C)c1cccc(C(C)CC)c1O (configuration not stated) in this assay.
inactive

// same read-out, input: `CN1C(=O)[C@@H](NC(=O)c2cc3ccccc3[nH]2)N=C(c2ccccc2)c2ccccc21`
inactive

// same read-out, input: `O=C(O)[C@H](O)[C@@H](O)C(=O)O`
inactive

// same read-out, input: `CN(C)CCc1c[nH]c2ccccc12`
inactive

// same read-out, input: `CCNS(=O)(=O)C(F)(F)C(F)(F)C(F)(F)C(F)(F)C(F)(F)C(F)(F)C(F)(F)C(F)(F)F`
inactive

Next:
Answer briefly: the call reported for `CN` in this assay.
inactive

// same read-out, input: CN1CCc2cc3c(cc2C1O)OCO3 (configuration not stated)
inactive

// same read-out, input: `Oc1ccc([C@H]2CNCc3c2ccc(O)c3O)cc1O`
inactive

// same read-out, input: `Oc1ccc(Cl)c(Cl)c1`
inactive

// same read-out, input: `O=S(=O)(NS(=O)(=O)C(F)(F)F)C(F)(F)F`
active

// same read-out, input: `O=C(CCCCl)c1ccc(F)cc1`
inactive

// same read-out, input: `Cc1c([N+](=O)[O-])c(C)c([N+](=O)[O-])c(C(C)(C)C)c1[N+](=O)[O-]`
inactive

// same read-out, input: CCCCn1cc[n+](C)c1 (tested in a mixture with another compound)
inactive

// same read-out, input: `Cc1ccc(C)c2ccccc12`
inactive

// same read-out, input: `CCC[CH2][Sn]([CH2]CCC)([CH2]CCC)[O][Sn]([CH2]CCC)([CH2]CCC)[CH2]CCC`
active

// same read-out, input: `CC(=O)[O-].CC(=O)[O-].CC(=O)[O-].[Cr+3]`
inactive

// same read-out, input: `N#CC(C#N)=NNc1cccc(Cl)c1`
active

// same read-out, input: `C=CC(=O)[O][Sn]([CH2]CCC)([CH2]CCC)[CH2]CCC`
active

// same read-out, input: `CCOP(=O)(Sc1ccccc1)Sc1ccccc1`
inactive

// same read-out, input: CC(=O)C(Cl)C(=O)N(C)C (configuration not stated)
inactive

* * *

Test: qHTS assay to identify small molecule agonists of the endoplasmic reticulum stress response signaling pathway - cell viability counter screen (AID 1159517);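 further: HeLa cells carrying an ER stress response element beta-lactamase reporter; nearly all actives have a fitted effect of over 50% in size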
Settings: ESRE-bla HeLa viability, CellTiter-Glo luminescence, 5 h; series mostly up to 61 µM
Inconclusive results are not listed. Calls of active or inactive are those of the source. Calls follow the shape of the full dose curve.
Respond with a class label; see active, inactive

Answer briefly: the call reported for CC1(C)C(C=C(Cl)Cl)C1C(=O)OC(C#N)c1ccc(F)c(Oc2ccccc2)c1 (stereo not given) in this assay.
inactive

// same read-out, input: `CC1=C2C[C@H]3[C@@H](CC=C4C[C@@H](O)CC[C@@]43C)[C@@H]2CC[C@]12O[C@@H]1C[C@H](C)CN[C@H]1[C@H]2C`
inactive

// same read-out, input: `[Cl-].[Cl-].[Sn+2]`
inactive

// same read-out, input: `CN1C(=O)[C@@H](NC(=O)c2cc3ccccc3[nH]2)N=C(c2ccccc2)c2ccccc21`
inactive

// same read-out, input: `C#CCO`
inactive

Now, please, on to the next compound.
Answer briefly: the call reported for CCC(C)Nc1c([N+](=O)[O-])cc(C(C)(C)C)cc1[N+](=O)[O-] (stereo not given) in this assay.
inactive
